# assayed target: Fructose-bisphosphate aldolase (Mycobacterium tuberculosis (strain ATCC 25618 / H37Rv)) (UniProt P9WQA3)
# Sequence (P9WQA3 whole entry, looked up): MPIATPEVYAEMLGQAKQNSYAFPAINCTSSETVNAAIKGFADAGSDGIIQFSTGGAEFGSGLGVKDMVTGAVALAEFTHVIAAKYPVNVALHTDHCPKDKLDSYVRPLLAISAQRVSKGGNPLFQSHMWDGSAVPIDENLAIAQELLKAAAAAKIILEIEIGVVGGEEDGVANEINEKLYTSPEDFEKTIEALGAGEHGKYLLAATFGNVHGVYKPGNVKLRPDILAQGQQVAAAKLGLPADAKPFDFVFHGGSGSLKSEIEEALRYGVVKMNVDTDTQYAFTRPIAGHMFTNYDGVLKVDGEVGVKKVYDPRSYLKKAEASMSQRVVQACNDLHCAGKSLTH
# measurement notes: Mtb FBA enzyme inhibitors, primary screen, biochemical, fluorescence, strain H37Rv (AID 588726)
# applied conditions: purified M. tuberculosis FBA, fluorescence read-out, at 1 µM
Among all 360,000 compounds or so, about 8,200 (2.3%) were called active. Rule as the data show it: active = inhibition above about 27%; inactive = the rest. Only a selection was taken, and actives are over-represented in it overall.
Reply using exactly one outcome from Yes (active), No (inactive)

I would be grateful if you could indicate the recorded call for "O=C(NCc1ccco1)c1sc2cccc(F)c2c1Cl" .
No

I would be grateful if you could indicate the recorded call for "Cc1ccc(S(=O)(=O)N2CCN(C(=O)CSc3cc(C)ccc3C)CC2)c(C)c1" .
Yes

I would be grateful if you could indicate the recorded call for "O=C(CN(C(=O)c1csnn1)c1cccc(Cl)c1)NC1CCCC1" .
No

I would be grateful if you could indicate the recorded call for "O=C(NCc1ccco1)c1cccc(-c2ccc3nncn3c2)c1" .
No

I would be grateful if you could indicate the recorded call for O=C(NC1CCCCC1)c1ccc2c(=O)n(CC3CCCO3)c(=O)[nH]c2c1 (stereo not drawn) .
No

I would be grateful if you could indicate the recorded call for "COC(=O)C1=C(C)N(Cc2ccccc2)C(=NCCCOC(C)C)N[C@H]1c1ccccc1" .
No

I would be grateful if you could indicate the recorded call for CCOC(=O)C1CCCN(C(=O)CSc2nnc3nc(C)cc(C)n23)C1 (stereo not drawn) .
No

I would be grateful if you could indicate the recorded call for CC1CCCCN1CCCNC(=O)Cn1ncc2c([nH]c3ccccc32)c1=O (stereo not drawn) .
No

I would be grateful if you could indicate the recorded call for "Oc1ccc(Br)cc1C=Nc1ccc2[nH]ncc2c1" .
Yes

I would be grateful if you could indicate the recorded call for OC(c1nnc(-c2ccccc2)o1)c1cccs1 (stereo not drawn) .
No

I would be grateful if you could indicate the recorded call for "COc1ccc(C(C)C)cc1S(=O)(=O)Nc1ncn[nH]1" .
No

I would be grateful if you could indicate the recorded call for "COc1cc(Br)cc(/C=N/c2ncn[nH]2)c1O" .
No

I would be grateful if you could indicate the recorded call for "Cn1nc(N)c2ncc(C(Cl)(Cl)Cl)nc21" .
No

I would be grateful if you could indicate the recorded call for "O=c1cc(-c2ccccc2)[nH]c2cc(F)ccc12" .
No

I would be grateful if you could indicate the recorded call for "CC1CCN(CC(=O)Nc2nccs2)CC1" .
No

I would be grateful if you could indicate the recorded call for "Nc1ccc(-c2nnc(-c3ccc(-c4ccccc4)cc3)o2)cc1" .
Yes

I would be grateful if you could indicate the recorded call for "CC(C)Cn1cc(-c2cncc3nccn23)cn1" .
Yes

I would be grateful if you could indicate the recorded call for "CCCN(C(=O)CSc1nnnn1C)c1c(N)n(Cc2ccccc2)c(=O)[nH]c1=O" .
No

I would be grateful if you could indicate the recorded call for Cc1ccc(C(CNC(=O)Nc2cccc(C)c2)N2CCN(C)CC2)cc1 (stereo not drawn) .
No

I would be grateful if you could indicate the recorded call for "COc1ccc2c(c1OC)C(=O)N(c1ncn[nH]1)C2" .
Yes

I would be grateful if you could indicate the recorded call for COc1ccc(CCNC(=O)c2ccc(NC(=O)CC3SC(N4CCCCC4)=NC3=O)cc2)cc1OC (stereo not drawn) .
No

I would be grateful if you could indicate the recorded call for "Cc1ccc(S(=O)(=O)N2CCN(C(=O)COC(=O)c3c(C)cc(C)cc3C)CC2)c(C)c1" .
No

I would be grateful if you could indicate the recorded call for "CN(C)c1ccc(-c2nnc(-c3cccnc3)o2)cc1" .
No
